Listing of recorded EC50 by entry.
tested on: Streptococcus; experiment: Group A Streptococcus viability loss, dose response, counter-screen for streptokinase expression inhibitor project, luminescence, BacTiterGlo (AID 1915); assay type: functional, organism-based;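 note: potency for reduction of bacterial viability or growth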
Calls of active or inactive are those of the source. Cut-off read from the data, not from the text of the source: actives have a measured EC50 and inactives only a lower limit.

molecule: CCN(CC(=O)NCC1CCCO1)S(=O)(=O)c1ccc(Cl)cc1 (stereo not drawn)
testTarget: Streptococcus
EC50: > 150 µM (not active)
--
molecule: CC1(C)Cc2nc3sc4c(OCc5ccccc5)ncnc4c3cc2CO1
testTarget: Streptococcus
EC50: 11 µM (active)
--
molecule: CCc1oc2ccccc2c1C(=O)c1cc(Br)c(O)c(Br)c1
testTarget: Streptococcus
EC50: > 150 µM (not active)
--
molecule: COc1ccc(NC(=S)N=Nc2c(O)[nH]c3ccccc23)cc1
testTarget: Streptococcus
EC50: 14.1 µM (active)
--
molecule: CN1C(=O)/C(=C/c2ccc(C(F)(F)F)cc2)Sc2ccc(C(=O)N3CCN(c4ccccn4)CC3)cc21
testTarget: Streptococcus
EC50: 12.5 µM (active)
--
molecule: FC(F)(F)c1ccccc1/C=N/n1c(S)nnc1C1CCCCC1
testTarget: Streptococcus
EC50: 15.7 µM (active)
--
molecule: COc1ccc(CN2C(=O)c3ccccc3C(/C=N\OCc3ccc(C)cc3)C2=O)cc1 (stereo not drawn)
testTarget: Streptococcus
EC50: 11.2 µM (active)
--
molecule: Cc1cccc(NC(=O)c2ccc(S(=O)(=O)N(C)CC3CCCO3)cc2)c1C (stereo not drawn)
testTarget: Streptococcus
EC50: > 150 µM (not active)
